Could you please report measured koff for the items listed next?
assayed.target: T1, human beta-Klotho (KLB) (human, UniProt Q86Z14 53-997);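 also: Anti-KLB antibodies captured on anti-human Fc CM5 chip, KLB injected as analyte, 180 s association and 1800 s dissociation, fitted to 1:1 binding model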
T1 construct: bought protein; also called human KLB
T1 sequence (looked up): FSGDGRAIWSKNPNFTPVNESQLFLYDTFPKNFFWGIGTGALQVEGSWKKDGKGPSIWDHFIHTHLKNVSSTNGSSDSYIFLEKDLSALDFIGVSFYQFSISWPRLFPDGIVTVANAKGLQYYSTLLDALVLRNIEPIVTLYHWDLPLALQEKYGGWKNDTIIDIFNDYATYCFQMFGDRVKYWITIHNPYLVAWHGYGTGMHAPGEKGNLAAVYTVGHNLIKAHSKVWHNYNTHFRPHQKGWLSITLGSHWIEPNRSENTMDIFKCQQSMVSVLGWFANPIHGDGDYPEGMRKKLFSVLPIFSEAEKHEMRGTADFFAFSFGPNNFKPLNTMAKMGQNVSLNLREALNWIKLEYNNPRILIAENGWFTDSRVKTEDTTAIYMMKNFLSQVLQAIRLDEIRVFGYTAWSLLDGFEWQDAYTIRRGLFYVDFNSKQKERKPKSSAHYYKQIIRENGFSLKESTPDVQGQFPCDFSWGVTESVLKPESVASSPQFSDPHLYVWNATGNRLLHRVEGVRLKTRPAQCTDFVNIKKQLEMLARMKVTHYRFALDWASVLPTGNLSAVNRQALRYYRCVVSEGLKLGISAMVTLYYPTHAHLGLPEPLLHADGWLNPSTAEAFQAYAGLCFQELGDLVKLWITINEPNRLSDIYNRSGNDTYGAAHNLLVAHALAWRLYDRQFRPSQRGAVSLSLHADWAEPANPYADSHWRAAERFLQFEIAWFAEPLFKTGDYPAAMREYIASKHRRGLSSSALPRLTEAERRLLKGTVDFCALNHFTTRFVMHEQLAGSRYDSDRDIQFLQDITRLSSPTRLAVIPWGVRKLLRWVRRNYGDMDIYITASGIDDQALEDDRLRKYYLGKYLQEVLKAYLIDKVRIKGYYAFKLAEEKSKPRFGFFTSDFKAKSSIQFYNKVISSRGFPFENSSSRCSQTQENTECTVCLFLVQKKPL
method: SPR
Numbers only here, please. The scale is s⁻¹.

stdin: For the binder Ab0416 (antibody, IgG4, V domains shown, IgG4 PE) VH: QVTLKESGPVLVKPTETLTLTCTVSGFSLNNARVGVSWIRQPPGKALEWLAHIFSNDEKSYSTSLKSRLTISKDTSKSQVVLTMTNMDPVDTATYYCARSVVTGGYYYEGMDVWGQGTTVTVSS VL: SYVLTQPPSVSVAPGQTARITCGGSNIGSESVHWYQQKPGQAPVLVVYYESDRPSGIPERFSGSNSGNTATLTISRVEAGDEADYYCQVWEGESDHVVFGGGTKLTVLG , give its reported koff.
stdout: 0.00107

stdin: Supply koff value. Item: Ab0352 (antibody, IgG4, V domains shown, IgG4 PE) VH: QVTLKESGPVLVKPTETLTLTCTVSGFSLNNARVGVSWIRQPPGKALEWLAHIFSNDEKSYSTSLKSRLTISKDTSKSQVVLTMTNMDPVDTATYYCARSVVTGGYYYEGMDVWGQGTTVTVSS VL: SYVLTQPPSVSVAPGQTARITCGGSNIGSESVHWYQQKPGQAPVLVVYEESDRPSGIPERFSGSNSGNTATLTISRVEAGDEADYYCQVWEGSSDHVVFGGGTKLTVLG
stdout: 0.000419

stdin: // fetch koff given entry Ab0203 (antibody, IgG4, V domains shown, IgG4 PE) VH: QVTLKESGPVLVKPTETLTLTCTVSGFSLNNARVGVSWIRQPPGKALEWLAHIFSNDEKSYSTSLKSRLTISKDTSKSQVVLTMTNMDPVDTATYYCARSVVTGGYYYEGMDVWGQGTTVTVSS VL: SYVLTQPPSVSVAPGQTARITCGGNNIGSESVHWYQQKPGQAPVLVVYDESDRPSGIPERFSGSNSGNTATLTISRVEAGDEADYYCQVWDGNSDHVVFGGGTKLTVLG
stdout: 0.00151
